The entries below come with measured HEK-Blue IL-18: Abs405 (Emax) values attached.
Target: T1, IL-18 receptor (IL-18Rα/IL-18Rβ) overexpressed on HEK-Blue IL-18 cells (Homo sapiens (Human), UniProt Q13478 19-541; O95256 20-599)
T1 sequence 1: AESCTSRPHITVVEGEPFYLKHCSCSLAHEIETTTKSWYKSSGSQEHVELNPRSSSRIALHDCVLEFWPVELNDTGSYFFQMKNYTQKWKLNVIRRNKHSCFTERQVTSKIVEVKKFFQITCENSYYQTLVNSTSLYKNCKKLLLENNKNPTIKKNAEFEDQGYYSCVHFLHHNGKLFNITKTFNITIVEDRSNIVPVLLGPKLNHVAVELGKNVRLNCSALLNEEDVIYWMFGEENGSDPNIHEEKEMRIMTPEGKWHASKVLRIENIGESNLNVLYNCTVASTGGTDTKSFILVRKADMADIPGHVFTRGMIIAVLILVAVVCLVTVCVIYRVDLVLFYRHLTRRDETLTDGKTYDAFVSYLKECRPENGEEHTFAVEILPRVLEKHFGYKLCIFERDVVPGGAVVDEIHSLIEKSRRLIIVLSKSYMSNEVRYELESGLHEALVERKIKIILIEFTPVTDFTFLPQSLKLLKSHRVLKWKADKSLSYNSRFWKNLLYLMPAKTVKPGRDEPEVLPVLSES
T1 sequence 2: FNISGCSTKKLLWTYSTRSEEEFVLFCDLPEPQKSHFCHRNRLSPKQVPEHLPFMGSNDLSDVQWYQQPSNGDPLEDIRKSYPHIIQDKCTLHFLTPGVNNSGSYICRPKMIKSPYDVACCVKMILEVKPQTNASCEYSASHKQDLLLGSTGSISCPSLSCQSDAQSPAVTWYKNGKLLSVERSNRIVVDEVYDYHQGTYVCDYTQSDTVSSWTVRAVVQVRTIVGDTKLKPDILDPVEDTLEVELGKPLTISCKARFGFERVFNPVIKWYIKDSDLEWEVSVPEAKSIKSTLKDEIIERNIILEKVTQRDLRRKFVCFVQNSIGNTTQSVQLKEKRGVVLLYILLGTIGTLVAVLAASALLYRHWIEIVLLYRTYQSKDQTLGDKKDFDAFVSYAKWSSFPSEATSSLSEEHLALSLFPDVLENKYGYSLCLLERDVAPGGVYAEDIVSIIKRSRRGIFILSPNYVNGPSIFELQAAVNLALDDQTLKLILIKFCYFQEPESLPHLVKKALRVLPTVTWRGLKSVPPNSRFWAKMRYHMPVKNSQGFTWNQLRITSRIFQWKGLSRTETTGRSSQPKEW
Test: cell-based or functional assay

Here are 4 binders together with their reported answers.
input: What does the record list as HEK-Blue IL-18: Abs405 (Emax) for DGL068 (bispecific antibody, V domains shown) V domain 1: EVQLVESGGGLVQPGGSLRLSCAASGSIFSINAMGWYRQAPGKQREVVATSTGGGMTNYADSVKGRFTISRDNAKNTVYLQMNSLKPEDTAVYYCNADKDPFFPGDYWGQGTQVTVSS V domain 2: QVQLVESGGGLVQAGGSLRLSCVASGTFFQIHVMGWYRQAPGKQRELVAFIINNGGTRYADSVKGRFTISRDYAKNTVYLQMNSLKPEDTAVYYCNTEGTYRGRYSTDNWGQGTQVTVSS ?
output: 0.36 Abs

input: What does the record list as HEK-Blue IL-18: Abs405 (Emax) for DGL082 (bispecific antibody, V domains shown) V domain 1: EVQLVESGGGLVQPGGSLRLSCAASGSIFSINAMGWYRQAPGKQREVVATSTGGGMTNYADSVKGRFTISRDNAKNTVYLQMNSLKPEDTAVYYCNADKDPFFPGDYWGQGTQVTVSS V domain 2: QVQLVESGGGLVQAGGSLRLSCAASGRSVSENDVRWYRQAPRKQREWVAAITSSGITGYADSVRIRFTISRDLAKNTVYLQMNSLKPEDTAVYYCYMTDQYWGQGTQVTVSS ?
output: 0.47 Abs

input: What does the record list as HEK-Blue IL-18: Abs405 (Emax) for DGL052 (bispecific antibody, V domains shown) V domain 1: QVQLQESGGGLVQPGGSLRLSCAASGFIFSNWYMRWVRQAPGEGLEWVSSINSGGDDTDYADSVKGRFTISRDNAKGTLYLQMHSLKPEDTALYYCERGADRVRGQGTQVTVSS V domain 2: QVQLVESGGDLVLPGGSLKLSCEASGSISSRNSMAWYRRAPGKQRELVAAISSISSGGRTDYADFVKGRFTIFRDTAKNMVYLQMNNLKPEDTAVYDCDDPIRVASLAYDDWGQGTQVTVSS ?
output: 1.03 Abs

input: What does the record list as HEK-Blue IL-18: Abs405 (Emax) for DGL049 (bispecific antibody, V domains shown) V domain 1: QVQLQESGGGLVQAGGSLRLSCIVSGSIVRIDFMGWYRQAPGKKRDMVATITTGGSTNYADSVKDRFTISRDNAKNTLSLQVNDLKPEDTAVYYCNSVVHTTSRPPVLYWGQGTQVTVSS V domain 2: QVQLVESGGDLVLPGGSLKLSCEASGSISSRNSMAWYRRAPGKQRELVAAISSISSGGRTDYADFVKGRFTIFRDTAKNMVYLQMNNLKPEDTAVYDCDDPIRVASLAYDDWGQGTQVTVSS ?
output: 0.34 Abs

Would you kindly look at the next entry?
input: What does the record list as HEK-Blue IL-18: Abs405 (Emax) for DGL078 (bispecific antibody, V domains shown) V domain 1: QVQLQESGGGLVQAGGSLRLSCIVSGSIVRIDFMGWYRQAPGKKRDMVATITTGGSTNYADSVKDRFTISRDNAKNTLSLQVNDLKPEDTAVYYCNSVVHTTSRPPVLYWGQGTQVTVSS V domain 2: EVQLVESGGGVAQAGGSLRLSCAASITSFSLNTMGYYRQLPGKQRELVAVESSSGITNYADSVKGRFTISRDGAKNTVFLQMNSLTPEDTAVYYCGGKLFGRDFWGQGTQVTVSS ?
output: 0.65 Abs
